These measurements were taken from the supplement of paper PMC10899765.

- Tested on: MCF10A
- assayDetails: percent viability (nuclei count relative to siNT); higher = more viable cells
- conditionsUsed: 20 nM; 72 h
Labelling field: enter yes if recorded percent viability is less than 80%. Enter no if it equals or exceeds that cut-off.

Recorded results for 10 sequences are shown here.
>>> print(df.to_string())
                                   sequence  classification
0     UCUUUUCUUUGAGACUCACU [hsa-miR-627-3p]             yes
1  UCUCACCCCAACUCUGCCCCAG [hsa-miR-6784-3p]             yes
2   AAUGGCUGUCCGUAGUAUGGUC [hsa-miR-889-5p]             yes
3   UCAGCAAACAUUUAUUGUGUGC [hsa-miR-545-3p]              no
4  CGAGGGCAUUUCAUGAUGCAGGC [hsa-miR-3616-3p]             yes
5  CCAAAACUGCAGUUACUUUUGC [hsa-miR-548o-3p]              no
6           GCAGCAUUCAUGUCCC [hsa-miR-4310]             yes
7        UGAGGGAGGAGGUUGGGUA [hsa-miR-6133]             yes
8       CGGUGGACUGGAGUGGGUGG [hsa-miR-8071]             yes
9   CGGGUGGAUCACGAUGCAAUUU [hsa-miR-363-5p]             yes

Take the sequence UGUGGGUGGGAAGGACUGGAUU [hsa-miR-6748-5p] and say whether its percent viability is less than 80%.
yes

Take the sequence ACGGCCCAGGCGGCAUUGGUG [hsa-miR-6075] and say whether its percent viability is less than 80%.
no

Take the sequence GCCGGGGCUUUGGGUGAGGG [hsa-miR-6784-5p] and say whether its percent viability is less than 80%.
no

Take the sequence AAAGGUCAUUGUAAGGUUAAUGC [hsa-miR-3974] and say whether its percent viability is less than 80%.
yes

Take the sequence UUAUUGCUUAAGAAUACGCGUAG [hsa-miR-137] and say whether its percent viability is less than 80%.
no

Take the sequence GUAGAUUCUCCUUCUAUGAGUA [hsa-miR-376a-5p] and say whether its percent viability is less than 80%.
yes

Take the sequence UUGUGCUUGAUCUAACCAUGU [hsa-miR-218-5p] and say whether its percent viability is less than 80%.
no

Take the sequence AGAAGGGAAGAUGGUGAC [hsa-miR-7515] and say whether its percent viability is less than 80%.
yes
